Quick reference for GI50 among some compounds
# Test system: SNB-78
# ASSAY_METHOD_TEXT: NCI tumour cell line growth inhibition, 48 h
The source made the active and inactive calls. Cut-off read from the data, not from the text of the source: active = GI50 up to about 1.1 µM and inactive = higher.
PROPERTY_NAME: GI50

1) CC1=C(C(=O)CC(=O)C(=O)Nc2cc(C)ccc2C)Sc2ccccc2N1 : > 100 µM (inactive)
2) CC1C(c2ccccc2)=CCON1c1ccccc1 (stereo unspecified) : > 100 µM (inactive)
3) OCCCCCNc1ccnc2cc(Cl)ccc12 : > 100 µM (inactive)
4) COc1cc2c(cc1OC)C1[C@@H](c3ccccc3)OCN1CC2 (stereo partly specified) : > 73.1 µM (inactive)
5) O=c1c(O)c(-c2ccc(O)c(O)c2)oc2cc(O)cc(O)c12 : > 100 µM (inactive)
6) CNC(=O)NC(CCCCNC(=O)OCc1ccccc1)C(=O)OCc1ccccc1 (stereo unspecified) : 33.4 µM (inactive)
7) C[Si](C)(C)CC(N)=O : > 100 µM (inactive)
8) CCOC(=O)[C@H]1Nc2c(cccc2[N+](=O)[O-])[C@H]2OCC[C@@H]12 : > 100 µM (inactive)
9) CC(=O)/C=C/c1c[nH]c(=O)[nH]c1=O : 159 µM (inactive)
10) COc1ccc(CC2c3c(cc(OC)c(OC)c3OC)CCN2C)cc1OC (stereo unspecified) : 60 µM (inactive)
11) c1cc2nnsc2s1 : > 100 µM (inactive)
12) O=C(CC1(O)C(=O)Nc2c(Cl)cc(Cl)cc21)c1cccc2ccccc12 (stereo unspecified) : 26.7 µM (inactive)
13) CN(C)CC(=O)N1CCc2c([nH]c3ccccc23)C1c1cccnc1 (stereo unspecified) : > 100 µM (inactive)
14) COc1cc(-c2cc(=O)c3cc(C)c(C)c(C(=O)O)c3o2)cc(OC)c1OC : > 100 µM (inactive)
15) CSc1ncnc2c1CCN2 : > 100 µM (inactive)
16) CCOC(=O)NC1C2CC(=O)C(O2)C1OCc1ccccc1 (stereo unspecified) : > 100 µM (inactive)
17) Cc1cc(-c2ccccc2)nc(Nc2nc3ccccc3o2)n1 : > 100 µM (inactive)
18) C/C(=N\NC(C)(C)C)c1sc(-c2nc(C)c(/C(C)=N/NC(C)(C)C)s2)nc1C : > 100 µM (inactive)
19) Nc1ccccc1C(=O)/C=C/c1ccccc1O : 41.5 µM (inactive)
20) N#Cc1cc([N+](=O)[O-])ccc1NC(=O)C(=O)Nc1n[nH]c(N)n1 : > 100 µM (inactive)
21) COC1CCCc2c(OC(C)=O)ccc(OC(C)=O)c21 (stereo unspecified) : 36 µM (inactive)
22) CCN1C(=O)/C(=C\c2coc3ccccc3c2=O)SC1=S : 56.8 µM (inactive)
23) COc1ccc(C)cc(O)c1=O : > 100 µM (inactive)
24) CN(C)CN(C)c1nc(N(C)C)nc(N(C)C)n1 : > 100 µM (inactive)
25) O=S(=O)(SCc1ccccc1)C(c1ccccc1)c1ccccc1 : 30.5 µM (inactive)
26) O=c1[nH]cnc2c1nnn2C1C=C(CO)C(O)C1O (stereo unspecified) : > 100 µM (inactive)
